# Target Under Test: TAK1A-TAB fusion protein (Homo sapiens)
# Construct: using 20 nM TAK1A-TAB fusion protein
# Sequence (O43318 with tags, fused parts or gaps isoform O43318-2 limits assumed): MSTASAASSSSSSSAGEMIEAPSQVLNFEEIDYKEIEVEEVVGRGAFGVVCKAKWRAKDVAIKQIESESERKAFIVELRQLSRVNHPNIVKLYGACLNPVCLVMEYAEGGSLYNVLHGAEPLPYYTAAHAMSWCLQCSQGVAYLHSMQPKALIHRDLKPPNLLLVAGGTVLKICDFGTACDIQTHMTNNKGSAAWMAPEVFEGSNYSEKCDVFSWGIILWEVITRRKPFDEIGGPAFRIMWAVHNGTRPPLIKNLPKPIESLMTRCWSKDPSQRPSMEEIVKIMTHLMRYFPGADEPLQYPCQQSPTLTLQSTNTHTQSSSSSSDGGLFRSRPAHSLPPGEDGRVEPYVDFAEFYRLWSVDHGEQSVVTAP
# Assay Overview: TAK-1 inhibition assay, radiometric filter binding assay
# Measurement Context: 50 μM ATP, 12 μM bovine myelin basic protein, 20 nM TAK1A-TAB fusion protein
pKi: −log10 of the molar value.
Listed below: pKi values for each entry.

// query # pKi lookup, item COc1cnc2[nH]cc(-c3oncc3-c3cccc(Cl)c3Cl)c2c1 [Compound 49]
// result 6.00 to 6.70

// query Please answer likewise for Fc1cccc(-c2cnoc2-c2c[nH]c3ncc(-c4cnc5[nH]ccc5c4)cc23)c1F [Compound 77]
// result 6.00 to 6.70

// query Please answer likewise for CN1CCN(c2ccc(-c3cnc4[nH]cc(-c5oncc5-c5cccc(F)c5F)c4c3)cn2)CC1 [Compound 71]
// result > 6.70

###

Listed below: Ki values for each entry.
# Target Under Test: TAK1A-TAB fusion protein (Homo sapiens)
# Construct: using 20 nM TAK1A-TAB fusion protein
# Assay Overview: TAK-1 inhibition assay, radiometric filter binding assay
# Measurement Context: 50 μM ATP, 12 μM bovine myelin basic protein, 20 nM TAK1A-TAB fusion protein
# Procedure: Compounds were screened for their ability to inhibit TAK1A kinase activity using a radiometric filter binding assay. […] A test compound of the present invention (1 μL in DMSO) was combined with ATP and Buffer A in a final volume of 47 μL in a 96 well plate. […] A 70 μL aliquot of Microscint 20 scintillation fluid (PerkinElmer) was added to each well, and the plate was then sealed and read on a TopCount NXT microplate scintillation counter (PerkinElmer). […]

Guide cases for Ki, answers given:
{"Molecule": "CN1CCN(c2ccc(-c3cnc4[nH]cc(-c5oncc5-c5cccc(F)c5F)c4c3)cc2)CC1 [Compound 70, methanesulfonate]", "Ki": "< 200 nM"}
{"Molecule": "Cc1cnc2[nH]cc(-c3oncc3-c3cccc(F)c3F)c2c1", "Ki": "1000 to 12500 nM"}
{"Molecule": "CN(C)C(=O)c1ccc(-c2cnc3[nH]cc(-c4oncc4-c4cccc(F)c4F)c3c2)nc1", "Ki": "200 to 1000 nM"}
{"Molecule": "CN(C)CC#Cc1cnc2[nH]cc(-c3oncc3-c3cccc(F)c3F)c2c1", "Ki": "200 to 1000 nM"}
{"Molecule": "CN1CCN(c2ccc(-c3cnc4[nH]cc(-c5nncn5-c5cccc(F)c5F)c4c3)cn2)CC1", "Ki": "1000 to 12500 nM"}

// query # Ki lookup, item CN1CCN(c2ccc(-c3cnc4[nH]cc(-c5nncn5-c5cccc(F)c5F)c4c3)cc2)CC1
// result < 200 nM

// query Please answer likewise for NC1CC=C(c2cnc3[nH]cc(-c4oncc4-c4cccc(F)c4F)c3c2)CC1 (stereo not drawn)
// result < 200 nM

// query Please answer likewise for CN(C)c1cccc(-c2cnc3[nH]cc(-c4oncc4-c4cccc(F)c4F)c3c2)c1
// result 200 to 1000 nM

// query Please answer likewise for CS(=O)(=O)n1ccc2cc(-c3cnc4[nH]cc(-c5oncc5-c5cccc(F)c5F)c4c3)cnc21
// result 200 to 1000 nM

// query Please answer likewise for OC1CCN(c2ccc(-c3cnc4[nH]cc(-c5nncn5-c5cccc(F)c5F)c4c3)cn2)CC1
// result 200 to 1000 nM

// query Please answer likewise for Fc1cccc(-n2cnnc2-c2c[nH]c3ncc(-c4ccc(N5CCC[C@H]5CN5CCCC5)nc4)cc23)c1F
// result 200 to 1000 nM

// query Please answer likewise for Fc1cccc(-n2cnnc2-c2c[nH]c3ncc(-c4ccc(N5CCCC5)nc4)cc23)c1F
// result 200 to 1000 nM
